Molecular target: Bifunctional epoxide hydrolase 2 (Mus musculus)
Sequence (P34914 whole entry): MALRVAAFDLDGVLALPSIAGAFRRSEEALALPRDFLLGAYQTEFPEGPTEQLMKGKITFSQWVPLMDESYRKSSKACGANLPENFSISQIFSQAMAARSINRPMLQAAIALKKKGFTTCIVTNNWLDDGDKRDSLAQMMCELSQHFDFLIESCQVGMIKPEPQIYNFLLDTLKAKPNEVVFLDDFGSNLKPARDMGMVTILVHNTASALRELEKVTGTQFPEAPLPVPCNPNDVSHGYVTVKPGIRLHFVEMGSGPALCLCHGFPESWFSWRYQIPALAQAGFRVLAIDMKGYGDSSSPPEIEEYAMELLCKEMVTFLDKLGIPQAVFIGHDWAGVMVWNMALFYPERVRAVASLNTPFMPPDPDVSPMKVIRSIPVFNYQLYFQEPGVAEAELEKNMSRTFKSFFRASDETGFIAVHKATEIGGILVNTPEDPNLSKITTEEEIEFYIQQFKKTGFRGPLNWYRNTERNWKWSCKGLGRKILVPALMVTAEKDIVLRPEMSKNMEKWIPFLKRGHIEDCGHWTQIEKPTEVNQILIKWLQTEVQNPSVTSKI
Experiment: Inhibition of mouse recombinant sEH using fluorogenic substrate
IC50 values, listed per item
Reply with the number, then its unit.

{"columns": ["molecule", "measuredMetric", "result"],
 "data": [
  ["O=C1CCC(N2Cc3cc(N4CCN(C(=O)CCCCCCCCNC(=O)c5ccc(O[C@H]6CC[C@H](NC(=O)Nc7ccc(OC(F)(F)F)cc7)CC6)cc5)CC4)ccc3C2=O)C(=O)N1 (stereo partly drawn)", "IC50", "2.8 nM"],
  ["O=C1CCC(N2C(=O)c3ccc(N4CCN(CC5CCN(C(=O)CCCCCCCCC(=O)N6CCC(NC(=O)Nc7ccc(OC(F)(F)F)cc7)CC6)CC5)CC4)cc3C2=O)C(=O)N1 (stereo not drawn)", "IC50", "4.6 nM"]
]}

So what does the record say about IC50 for Cc1ncsc1-c1ccc(CNC(=O)[C@@H]2C[C@@H](O)CN2C(=O)[C@@H](NC(=O)CCOCCOCCOCCOCCC(=O)N2CCC(NC(=O)Nc3ccc(OC(F)(F)F)cc3)CC2)C(C)(C)C)cc1 ? 10 nM

So what does the record say about IC50 for O=C1CCC(N2C(=O)c3cccc(N4CCN(CC5CCN(C(=O)CCCCCCCCNC(=O)c6ccc(O[C@H]7CC[C@H](NC(=O)Nc8ccc(OC(F)(F)F)cc8)CC7)cc6)CC5)CC4)c3C2=O)C(=O)N1 (stereo partly drawn) ? 1.8 nM
